target.of.assay: CTSC in U937 cells (Homo sapiens (Human), UniProt P53634)
Sequence (P53634 25-463): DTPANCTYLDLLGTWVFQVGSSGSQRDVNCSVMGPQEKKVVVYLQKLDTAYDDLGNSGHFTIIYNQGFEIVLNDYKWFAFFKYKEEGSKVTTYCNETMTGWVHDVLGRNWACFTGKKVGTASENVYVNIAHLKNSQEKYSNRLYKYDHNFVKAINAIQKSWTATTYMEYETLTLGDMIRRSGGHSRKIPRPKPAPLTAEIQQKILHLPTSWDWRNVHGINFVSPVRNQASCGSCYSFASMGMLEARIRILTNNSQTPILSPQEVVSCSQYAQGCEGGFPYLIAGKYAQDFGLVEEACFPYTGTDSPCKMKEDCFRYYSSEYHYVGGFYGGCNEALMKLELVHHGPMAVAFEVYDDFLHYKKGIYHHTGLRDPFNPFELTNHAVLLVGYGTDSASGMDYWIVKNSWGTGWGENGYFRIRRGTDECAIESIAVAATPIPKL
test.details: Intracellular CTSC inhibition assay (in vitro), LLOMe-induced cell death in U937 cells
Type: cell-based
measurement.setup: 3 hours culture, CellTiter-Glo
Collected IC50 values appear next to each entry.
Quick note: number first, unit second.

Examples from the recorded data:
Inquiry: Quick one: IC50 for CC(C)C1(C(=O)NCC2CCC(F)(F)CC2)CN(C(=O)[C@@H]2CC[C@@]3(CCO3)CN2)C1 ?
Reply text: 133 nM

Inquiry: Record: O=C([C@@H]1C[C@@H](O)C2(CCC2)CN1)N1CCC(C(=O)N2CC[C@H](C(F)(F)F)C2)(C(F)(F)F)CC1
Reply text: 3.79 nM

Inquiry: Request: O=C([C@@H]1C[C@@H](O)C2(CCC2)CN1)N1CCC(c2nnn(-c3ccc(F)c(F)c3)n2)CC1
Reply text: 0.37 nM

Proceeding to the next compound to report its IC50.
Inquiry: Reported IC50 for CC(C)C1(c2noc(C3CCC(F)(F)CC3)n2)CCN(C(=O)[C@H]2N[C@@H]3CC[C@H]2C3)CC1 : what is it?
Reply text: 474 nM
